Every entry's value here was drawn from ChEMBL document CHEMBL1145498.

target: Tyrosine-protein kinase JAK1 (Homo sapiens) (UniProt P23458)
Sequence (P23458 whole entry): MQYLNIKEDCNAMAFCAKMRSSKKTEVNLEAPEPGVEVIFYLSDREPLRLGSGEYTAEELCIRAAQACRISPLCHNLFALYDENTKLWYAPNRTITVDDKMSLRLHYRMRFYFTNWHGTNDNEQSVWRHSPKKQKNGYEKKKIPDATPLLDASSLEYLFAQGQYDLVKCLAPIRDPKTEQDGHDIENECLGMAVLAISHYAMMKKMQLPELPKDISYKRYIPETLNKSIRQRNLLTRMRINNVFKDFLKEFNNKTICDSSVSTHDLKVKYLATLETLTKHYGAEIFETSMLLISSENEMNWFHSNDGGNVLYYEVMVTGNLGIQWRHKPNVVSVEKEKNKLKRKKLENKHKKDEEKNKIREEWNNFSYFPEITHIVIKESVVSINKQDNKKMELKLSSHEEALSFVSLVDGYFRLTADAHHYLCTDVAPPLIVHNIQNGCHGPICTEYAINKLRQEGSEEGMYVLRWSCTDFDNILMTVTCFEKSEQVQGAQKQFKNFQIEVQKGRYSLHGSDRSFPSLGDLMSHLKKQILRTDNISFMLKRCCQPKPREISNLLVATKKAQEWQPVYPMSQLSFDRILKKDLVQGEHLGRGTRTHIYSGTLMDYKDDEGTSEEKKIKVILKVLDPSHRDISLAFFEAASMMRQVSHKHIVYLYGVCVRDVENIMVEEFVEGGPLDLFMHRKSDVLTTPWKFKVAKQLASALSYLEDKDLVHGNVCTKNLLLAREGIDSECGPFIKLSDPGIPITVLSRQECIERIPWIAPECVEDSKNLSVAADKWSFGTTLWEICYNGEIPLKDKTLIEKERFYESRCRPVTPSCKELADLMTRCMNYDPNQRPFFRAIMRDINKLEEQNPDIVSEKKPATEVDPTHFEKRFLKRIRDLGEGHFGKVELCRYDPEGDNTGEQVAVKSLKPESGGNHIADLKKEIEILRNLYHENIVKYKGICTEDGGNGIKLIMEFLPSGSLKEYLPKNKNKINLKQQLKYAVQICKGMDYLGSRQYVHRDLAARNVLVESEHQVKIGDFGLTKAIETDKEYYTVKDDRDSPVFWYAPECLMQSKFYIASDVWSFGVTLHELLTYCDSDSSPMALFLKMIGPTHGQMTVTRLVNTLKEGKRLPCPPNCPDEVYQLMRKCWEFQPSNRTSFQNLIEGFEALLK
# ΔTm >= 0.3 °C gives True, anything below gives False

- CC(=O)O/N=C1/C(=C2/C(=O)Nc3cc(Br)ccc32)Nc2ccccc21 [6-BROMOINDIRUBIN-3'-ACETOXIME]: True
- O=C(O)/C=C/c1cc(CO)ccc1CO: True
- C/C(O)=C(\C#N)C(=O)Nc1cc(Br)ccc1Br: True
- CN(c1cccnc1)c1cc2c(Nc3ccc(F)c(Cl)c3)c(C#N)cnc2cn1: True
- O=S(=O)(c1cccc2c(Cl)cccc12)N1CCCNCC1: False
- CC(C)c1nn(-c2c(Cl)cccc2Cl)c2nc(Cc3ccc(OCCO)cc3)[nH]c(=O)c12: False
- Cn1cc(/C=C2/C(=O)Nc3ccc(S(N)(=O)=O)cc32)c2ccccc21: True
- Cl.Cn1cc(C2=C(c3ccc4cc5n(c4c3)CCC(CN)C5)C(=O)NC2=O)c2ccccc21 (stereo not given): False
- Cc1nc(Nc2ncc(C(=O)Nc3c(C)cccc3Cl)s2)cc(N2CCN(CCO)CC2)n1: True

---

molecular target: Casein kinase I isoform gamma-1 (Homo sapiens)
# ΔTm >= 0.6 °C gives YES, anything below gives NO

- O=C(Nc1cccc(Nc2cc(Nc3cccc(C(F)(F)F)c3)ncn2)c1)C1CC1: YES
- C=CNC#N: YES
- N#C/C(=C(/N)Sc1ccc(N)cc1)c1ccccc1C(F)(F)F: NO
- COc1nccc(-c2c(-c3ccc(F)cc3)ncn2[C@H]2CC[C@H](O)CC2)n1: YES
- O=C1c2ccccc2-[n+]2ccc3c([nH]c4ccccc43)c21 [FASCAPLYSIN CHLORIDE]: NO
- C[S+]([O-])c1ccc(-c2nc(-c3ccc(F)cc3)c(-c3ccncc3)[nH]2)cc1 (centres undefined): YES
- O=c1c(-c2ccc(O)cc2)coc2cc(O)cc(O)c12: YES

---

Molecular target: 3-phosphoinositide-dependent protein kinase 1 (Homo sapiens) (UniProt O15530)
Sequence (whole entry): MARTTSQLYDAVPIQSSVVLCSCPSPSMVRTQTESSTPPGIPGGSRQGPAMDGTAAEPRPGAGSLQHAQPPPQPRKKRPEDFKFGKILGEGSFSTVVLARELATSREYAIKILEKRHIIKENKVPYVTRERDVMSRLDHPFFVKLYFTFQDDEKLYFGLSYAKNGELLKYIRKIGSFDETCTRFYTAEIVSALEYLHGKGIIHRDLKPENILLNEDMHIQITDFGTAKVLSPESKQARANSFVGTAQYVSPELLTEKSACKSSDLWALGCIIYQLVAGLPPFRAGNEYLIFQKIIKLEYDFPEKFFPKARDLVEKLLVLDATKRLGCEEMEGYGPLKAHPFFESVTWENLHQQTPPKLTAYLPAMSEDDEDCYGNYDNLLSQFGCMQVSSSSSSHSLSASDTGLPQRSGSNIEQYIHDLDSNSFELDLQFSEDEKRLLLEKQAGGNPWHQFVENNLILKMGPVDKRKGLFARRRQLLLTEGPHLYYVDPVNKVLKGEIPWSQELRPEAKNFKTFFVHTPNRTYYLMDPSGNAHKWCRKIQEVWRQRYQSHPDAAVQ
measure: ΔTm

- Cn1cc(C2=C(c3cn(CCCSC(=N)N)c4ccccc34)C(=O)NC2=O)c2ccccc21: 0.1 °C
- NS(=O)(=O)c1ccc(Nc2nc(OCC3CCCCC3)c3nc[nH]c3n2)cc1: -0.1 °C
- COc1ccc2c(c[n+](C)c3c4cc5c(cc4ccc23)OCO5)c1OC [CHELERYTHRINE CHLORIDE]: -0.7 °C
- Oc1ccc(-c2nc(-c3ccc(F)cc3)c(-c3ccncc3)[nH]2)cc1: -1 °C
- O=C(Nc1cccc(Nc2cc(Nc3cccc(C(F)(F)F)c3)ncn2)c1)C1CC1: 1.7 °C
- Cc1nc2sccn2c(=O)c1CCN1CCC(=C(c2ccccc2)c2ccc(F)cc2)CC1: -0.8 °C
- Cc1[nH]c(/C=C2\C(=O)Nc3ccc(S(=O)(=O)N(C)c4cccc(Cl)c4)cc32)c(C)c1C(=O)N1CCN(C)CC1: -0.6 °C
- O=Nc1c(-c2c(O)[nH]c3ccccc23)[nH]c2ccccc12: 1.5 °C
- CN(C)c1ccc(CC2C(=O)Nc3ccccc32)cc1 (stereo unspecified): 0.3 °C
- Nc1cc2ncnc(Nc3cccc(Br)c3)c2cc1N: -0.2 °C
- C[C@@H](N)[C@H]1CC[C@H](C(=O)Nc2ccncc2)CC1: -0.3 °C
- O=C1Nc2ccc(I)cc2/C1=C1/Nc2ccccc2/C1=N\O: -0.3 °C
- O=C1Cc2c([nH]c3ccc([N+](=O)[O-])cc23)-c2ccccc2N1: 0 °C
- O=c1c(-c2ccc(O)cc2)coc2cc(O)cc(O)c12: 2.5 °C
- Cl.Cn1cc(C2=C(c3ccc4cc5n(c4c3)CCC(CN)C5)C(=O)NC2=O)c2ccccc21 (stereo unspecified): 0 °C
- CN(c1cccnc1)c1cc2c(Nc3ccc(F)c(Cl)c3)c(C#N)cnc2cn1: 1.2 °C
- C/C(O)=C(\C#N)C(=O)Nc1cc(Br)ccc1Br: -3.7 °C
- CC(C)c1cc(/C=C(\C#N)C(=O)NCCCc2ccccc2)cc(C(C)C)c1O: -0.5 °C
- O=c1sn(Cc2ccccc2)c(=S)n1Cc1ccccc1: 0 °C
- COc1cc2ncnc(Nc3ccc(F)c(Cl)c3)c2cc1OCCCN1CCOCC1: -0.5 °C
- CCCCc1c(-c2ccc(O)cc2)[nH]c2nccnc12: 4 °C
